Origin of values: PubChem BioAssay (EPA / NIEHS)

# tested-system: Heat shock factor protein 1 (Homo sapiens) (UniProt Q00613)
# Sequence (Q00613 whole entry, looked up): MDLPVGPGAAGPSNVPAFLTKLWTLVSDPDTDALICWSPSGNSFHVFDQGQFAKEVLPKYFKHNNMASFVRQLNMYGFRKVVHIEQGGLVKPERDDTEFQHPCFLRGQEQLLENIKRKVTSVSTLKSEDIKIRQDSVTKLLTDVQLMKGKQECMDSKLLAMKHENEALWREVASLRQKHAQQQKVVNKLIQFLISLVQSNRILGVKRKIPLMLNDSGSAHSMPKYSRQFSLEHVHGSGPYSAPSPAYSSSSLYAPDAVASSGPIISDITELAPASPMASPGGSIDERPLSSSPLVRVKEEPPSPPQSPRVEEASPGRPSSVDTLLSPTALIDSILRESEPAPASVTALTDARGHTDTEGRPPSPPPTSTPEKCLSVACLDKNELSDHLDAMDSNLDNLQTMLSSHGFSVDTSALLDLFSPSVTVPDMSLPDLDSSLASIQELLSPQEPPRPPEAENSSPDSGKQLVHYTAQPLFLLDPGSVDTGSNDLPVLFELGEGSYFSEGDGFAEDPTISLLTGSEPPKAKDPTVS
# assay-procedure: ATG_HSE_CIS: Attagene CIS-FACTORIAL HepG2 Assay for human Heat Shock Transcription Factor 1 (HSE) (AID 2282953)
# condition-label: HepG2 HSE cis-reporter, Attagene RNA transcription; actives raise or lower the signal
Calls of active or inactive are those of the source. How the source made its calls: active means hit-call score of the fitted dose curve at least 0.9, where 1 is the maximum; inactive means score below 0.9.
endpoint: AC50

Nc1nc(=S)[nH][nH]1    inactive
C#CCO    inactive
NNCCO    inactive
Cc1cc(Cl)ccc1O    inactive
O=NN1CCCCCCC1    inactive

// query Reported AC50 for Heat shock factor protein 1 (Homo sapiens) (UniProt Q00613), given CCOP(=S)(OCC)SCS(=O)(=O)C(C)(C)C ?
// result inactive

// query Reported AC50 for Heat shock factor protein 1 (Homo sapiens) (UniProt Q00613), given O=C(NC(=O)c1c(F)cccc1F)Nc1ccc(Cl)cc1 ?
// result inactive

// query Reported AC50 for Heat shock factor protein 1 (Homo sapiens) (UniProt Q00613), given COc1ccc([N+](=O)[O-])cc1O ?
// result inactive

// query Reported AC50 for Heat shock factor protein 1 (Homo sapiens) (UniProt Q00613), given O=C(NC(=O)c1c(F)cccc1F)Nc1cc(Cl)c(F)c(Cl)c1F ?
// result inactive

// query Reported AC50 for Heat shock factor protein 1 (Homo sapiens) (UniProt Q00613), given Cc1cc(-c2cc(C)c(N)c(C)c2)cc(C)c1N ?
// result inactive

====

# Read-out: urokinase plasminogen activator (uPA), PLAU (gene 5328)
# assay-procedure: BSK_KF3CT_uPA: BioMAP Diversity Plus: KF3CT Assay for urokinase plasminogen activator (uPA) Biomarker Activity (AID 2283075)
# condition-label: primary human keratinocytes with fibroblasts; actives raise or lower the signal
Calls of active or inactive are those of the source. The calls were made as follows: active = hit-call score of the fitted dose curve at least 0.9, where 1 is the maximum; inactive = score below 0.9.
Write down one outcome, taken from active, inactive

// query What was the test verdict on OC(Cc1ccccc1Cl)(Cn1[nH]cnc1=S)C1(Cl)CC1 (configuration not stated) ?
// result inactive

// query What was the test verdict on Oc1c(Br)cc(Br)cc1Br ?
// result inactive

// query What was the test verdict on OCCN(CCO)CCO ?
// result inactive

// query What was the test verdict on C[C@]12CC[C@@H](O)C[C@@H]1CC[C@@H]1[C@@H]2CC[C@]2(C)C(=O)CC[C@@H]12 ?
// result inactive

// query What was the test verdict on Clc1cccc(Cl)c1 ?
// result inactive

// query What was the test verdict on Cc1cc(Cl)ccc1OC(C)C(=O)O (configuration not stated) ?
// result inactive

// query What was the test verdict on O=C1C=CC(=O)c2ccccc21 ?
// result active

// query What was the test verdict on Cc1ccc2nc3sc(=O)sc3nc2c1 ?
// result inactive

// query What was the test verdict on O=c1oc2ccccc2c(O)c1C(CC(O)c1ccc(-c2ccc(Br)cc2)cc1)c1ccccc1 (configuration not stated) ?
// result active

// query What was the test verdict on Nc1ccc(N)cc1 ?
// result inactive

// query What was the test verdict on O=C(O)C1(c2ccc3c(c2)OC[C@H](Cc2ccc(-c4ccccc4)cc2)[C@H]3O)CCCC1 ?
// result active

// query What was the test verdict on CC(C)(COCC1CO1)COCC1CO1 (configuration not stated) ?
// result inactive

// query What was the test verdict on CC(C)=CC1C(C(=O)OCc2cccc(Oc3ccccc3)c2)C1(C)C (configuration not stated) ?
// result inactive

// query What was the test verdict on CC(C)(C)c1cc([N+](=O)[O-])cc(C(C)(C)C)c1O ?
// result inactive

// query What was the test verdict on OCCCCO ?
// result inactive

// query What was the test verdict on CCCCCCCCCCCCc1cccc(S(=O)(=O)O)c1 ?
// result active

// query What was the test verdict on O=C(Cc1ccccc1)OCCc1ccccc1 ?
// result inactive
